Target: natriuretic peptide receptor on C3H10T1/2 cells (Mus musculus, UniProt Q6VVW5)
Construct: endogenous in cells; host or cells: C3H10T1/2 cells
Sequence (Q6VVW5 23-1047 limits assumed): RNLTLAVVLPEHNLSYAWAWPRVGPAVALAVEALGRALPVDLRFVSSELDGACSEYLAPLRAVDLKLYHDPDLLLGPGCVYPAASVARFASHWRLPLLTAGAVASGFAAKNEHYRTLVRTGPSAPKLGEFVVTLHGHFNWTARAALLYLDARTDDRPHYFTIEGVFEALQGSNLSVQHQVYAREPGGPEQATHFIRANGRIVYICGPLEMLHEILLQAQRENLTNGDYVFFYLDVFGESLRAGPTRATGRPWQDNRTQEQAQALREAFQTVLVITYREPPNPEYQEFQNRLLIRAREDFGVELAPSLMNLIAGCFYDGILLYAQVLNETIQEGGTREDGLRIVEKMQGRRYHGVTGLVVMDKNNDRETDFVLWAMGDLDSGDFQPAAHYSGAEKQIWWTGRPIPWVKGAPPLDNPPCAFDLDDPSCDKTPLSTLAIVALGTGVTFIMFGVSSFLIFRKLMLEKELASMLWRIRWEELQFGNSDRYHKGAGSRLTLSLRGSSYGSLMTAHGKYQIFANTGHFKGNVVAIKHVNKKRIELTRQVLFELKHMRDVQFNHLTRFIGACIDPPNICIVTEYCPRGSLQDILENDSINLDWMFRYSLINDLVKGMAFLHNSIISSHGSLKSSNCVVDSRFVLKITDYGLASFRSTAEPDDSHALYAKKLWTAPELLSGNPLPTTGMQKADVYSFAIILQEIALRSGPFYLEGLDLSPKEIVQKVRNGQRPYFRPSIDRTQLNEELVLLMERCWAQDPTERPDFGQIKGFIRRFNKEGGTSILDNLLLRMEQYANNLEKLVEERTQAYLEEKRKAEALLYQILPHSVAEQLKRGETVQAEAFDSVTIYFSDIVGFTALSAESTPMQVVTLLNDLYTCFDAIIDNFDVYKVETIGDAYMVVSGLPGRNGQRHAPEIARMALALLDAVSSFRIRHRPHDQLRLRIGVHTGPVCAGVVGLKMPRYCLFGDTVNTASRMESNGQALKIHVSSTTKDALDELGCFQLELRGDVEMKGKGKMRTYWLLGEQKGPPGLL
Assay: Biotrak enzyme immunoassay of cGMP elicited on C3H10T1/2 cells
Format: cell-based
Conditions: Table 2; cGMP assay, compared to CNP
MEASURE NAME: cGMP response as percent of CNP (%)

C F G L K L D R I G A M - - - - C (CFGLKLDRIGAMC) [SEQ ID NO:17] = 3.4

a = C F G L K L D R A G S M S G L G C (CFGLKLDRAGSMSGLGC; peptide variant) [SEQ ID NO:9]
b = C H F G L K L D R I G S M A - - C (CHFGLKLDRIGSMAC; peptide variant) [SEQ ID NO:12]
c = C F G L K L D R I G A Q - - - - C (CFGLKLDRIGAQC; peptide variant) [SEQ ID NO:19]
d = C F G L K L D R I G S M S G L G C (CFGLKLDRIGSMSGLGC) [SEQ ID NO:2]
[ask] Sort by cGMP response as percent of CNP, descending. Your task in answering is to list the labels in the requested order.
[reply] d, b, a, c
(d: 127.4%, b: 21.7%, a: 11.5%, c: 3.8%)
